measurement_target: 5α-reductase
measurement_notes: 5α-reductase inhibitory activity in vitro
Type: biochemical
assay_conditions: rat prostate enzyme, [4-C14]testosterone + NADPH, 60 mins at 37° C.
pIC50: −log10 of the molar value.
property: pIC50

| molecule | measurement_target | pIC50 |
| --- | --- | --- |
| O=C(O)CCCOc1ccccc1NC(=O)c1ccc(OCc2ccccc2)cc1 | 5α-reductase | 6.70 |
| CCCc1ccc(CNc2ccc(C(=O)Nc3ccccc3OCCCC(=O)O)c(C)c2)cc1 | 5α-reductase | 7.40 |

[I] Cc1ccc(COc2ccc(C(=O)Nc3ccccc3OCCCC(=O)O)cc2)cc1
[II] CCCc1ccc(CN(Cc2ccc(CCC)cc2)c2ccc(C(=O)Nc3ccccc3OCCCC(=O)O)cc2)cc1
I would appreciate it if you could say which entry, I or II , has the lower pIC50 value. Identify your pick by its label.
I

###

measurement_target: 5α-reductase
measurement_notes: 5α-reductase inhibitory activity in vitro
assay_conditions: rat prostate enzyme, [4-C14]testosterone + NADPH, 60 mins at 37° C.
property: IC50 (nM)

| compound | unit | IC50 |
| --- | --- | --- |
| O=C(O)CCCOc1ccccc1NC(=O)c1ccc(OCCCCc2ccccc2)cc1 [1(g)] | nM | 440 |

[P] CCCc1ccc(CN(C(=O)c2ccc(CCC)cc2)c2ccc(C(=O)Nc3ccccc3OCCCC(=O)O)c(C)c2)cc1 [2(i)]
[Q] Cc1cc(N(Cc2ccc(C(F)(F)F)cc2)Cc2ccc(C(F)(F)F)cc2)ccc1C(=O)Nc1ccccc1OCCCC(=O)O [2(k)]
[R] CC(C)c1ccc(COc2ccc(C(=O)Nc3ccccc3OCCCC(=O)O)cc2)cc1 [1(e)]
I would appreciate it if you could sort these 3 compounds by IC50, starting from the smallest number. Show the ranking through the labels, in the order asked for.
P, R, Q
(P: 150 nM, R: 220 nM, Q: 580 nM)

###

measurement_target: 5α-reductase
measurement_notes: 5α-reductase inhibitory activity in vitro
assay_conditions: rat prostate enzyme, [4-C14]testosterone + NADPH, 60 mins at 37° C.
pIC50: −log10 of the molar value.
property: pIC50

| compound | pIC50 |
| --- | --- |
| O=C(O)CCCOc1ccccc1NC(=O)c1ccc(OCCCc2ccccc2)cc1 | 6.70 |

[A] Cc1cc(NC(C)c2ccc(CC(C)C)cc2)ccc1C(=O)Nc1ccccc1OCCCC(=O)O (stereo not shown)
[B] CC(C)Cc1ccc(CNc2ccc(C(=O)Nc3ccccc3OCCCC(=O)O)cc2)cc1
Given the listed records, identify the one among A and B with higher pIC50. Identify your pick by its label.
A

###

measurement_target: 5α-reductase
measurement_notes: 5α-reductase inhibitory activity in vitro
assay_conditions: rat prostate enzyme, [4-C14]testosterone + NADPH, 60 mins at 37° C.
property: IC50 (µM)

| molecule | unit | IC50 |
| --- | --- | --- |
| CCCc1ccc(COc2ccc(C(=O)Nc3ccccc3OCCCC(=O)O)cc2)cc1 [1(d)] | µM | 0.13 |

[a] Cc1cc(C(=O)Nc2ccccc2OCCCC(=O)O)ccc1OCc1ccc(CC(C)C)cc1 [1(i)]
[b] Cc1cc(N(Cc2ccc(F)cc2F)Cc2ccc(F)cc2F)ccc1C(=O)Nc1ccccc1OCCCC(=O)O [2(h)]
Given the listed records, identify the one among a and b with higher IC50. Identify your pick by its label.
a

[A] Cc1cc(OCc2ccc(CC(C)C)cc2)ccc1C(=O)Nc1ccccc1OCCCC(=O)O [1(h)]
[B] CCCCCN(CCCCC)c1ccc(C(=O)Nc2ccccc2OCCCC(=O)O)c(C)c1 [2(c)]
Given the listed records, identify the one among A and B with higher IC50. Identify your pick by its label.
A
(A: 0.57 µM, B: 0.3 µM)

###

measurement_target: 5α-reductase
measurement_notes: 5α-reductase inhibitory activity in vitro
Assay type: biochemical
assay_conditions: rat prostate enzyme, [4-C14]testosterone + NADPH, 60 mins at 37° C.
property: IC50 (nM)

| compound | IC50, nM |
| --- | --- |
| CC(C)Cc1ccc(COc2ccc(C(=O)Nc3ccccc3OCCCC(=O)O)cc2)cc1 | 80 |

[I] CCc1ccc(COc2ccc(C(=O)Nc3ccccc3OCCCC(=O)O)cc2)cc1
[II] Cc1cc(NCc2ccccc2C(F)(F)F)ccc1C(=O)Nc1ccccc1OCCCC(=O)O
I would appreciate it if you could say which entry, I or II , has the lower IC50 value. Identify your pick by its label.
II
(II: 220 nM, I: 320 nM)

[1] Cc1cc(N(Cc2ccc(C(C)C)cc2)Cc2ccc(C(C)C)cc2)ccc1C(=O)Nc1ccccc1OCCCC(=O)O
[2] CCCc1ccc(C(Oc2ccc(C(=O)Nc3ccccc3OCCCC(=O)O)c(C)c2)c2ccc(CCC)cc2)cc1
Given the listed records, identify the one among 1 and 2 with higher IC50. Identify your pick by its label.
1
(1: 27 nM, 2: 6.5 nM)

[A] CCCc1ccc(CN(Cc2ccc(CCC)cc2)c2ccc(C(=O)Nc3ccccc3SCCCC(=O)O)c(C)c2)cc1
[B] CCCc1ccc(CN(Cc2ccc(CCC)cc2)c2ccc(C(=O)Nc3ccccc3[S+]([O-])CCCC(=O)O)c(C)c2)cc1 (centres unmarked)
Given the listed records, identify the one among A and B with higher IC50. Identify your pick by its label.
B

###

measurement_target: 5α-reductase
measurement_notes: 5α-reductase inhibitory activity in vitro
assay_conditions: rat prostate enzyme, [4-C14]testosterone + NADPH, 60 mins at 37° C.
pIC50: −log10 of the molar value.
property: pIC50

Answered cases to consult:
| compound | numeric_result |
| --- | --- |
| CCCc1ccc(C(Nc2ccc(C(=O)Nc3ccccc3OCCCC(=O)O)cc2)c2ccc(CCC)cc2)cc1 [2(s)] | 7.96 |
| CN(Cc1ccc(C(=O)Nc2ccccc2OCCCC(=O)O)cc1)c1cccc2c1CCCC2 [6(c)] | 6.85 |

[I] Cc1cc(N(CCCCc2ccccc2)CCCCc2ccccc2)ccc1C(=O)Nc1ccccc1OCCCC(=O)O [2(f)]
[II] CCCc1ccc(CN(Cc2ccc(CCC)cc2)c2ccc(C(=O)Nc3ccccc3OCCCC(=O)O)c(C)c2)cc1 [Example 2]
Given the listed records, identify the one among I and II with higher pIC50. Identify your pick by its label.
II

###

measurement_target: 5α-reductase
measurement_notes: 5α-reductase inhibitory activity in vitro
assay_conditions: rat prostate enzyme, [4-C14]testosterone + NADPH, 60 mins at 37° C.
pIC50: −log10 of the molar value.
property: pIC50

| molecule | property | numeric_result |
| --- | --- | --- |
| CCCc1ccc(C(Nc2ccc(C(=O)Nc3ccccc3OCCCC(=O)O)c(C)c2)c2ccc(CCC)cc2)cc1 [2(r)] | pIC50 | 8.60 |
| Cc1cc(N(Cc2ccc(CC(C)C)cc2)Cc2ccc(CC(C)C)cc2)ccc1C(=O)Nc1ccccc1OCCCC(=O)O | pIC50 | 7.60 |

[I] CCCCCN(Cc1ccc(CCC)cc1)c1ccc(C(=O)Nc2ccccc2OCCCC(=O)O)c(C)c1
[II] Cc1cc(NCc2ccc(CC(C)C)cc2)ccc1C(=O)Nc1ccccc1OCCCC(=O)O
[III] CCCc1ccc(C(Oc2ccc(C(=O)Nc3ccccc3OCCCC(=O)O)cc2)c2ccc(CCC)cc2)cc1
[IV] CCCc1ccc(CN(C)c2ccc(C(=O)Nc3ccccc3OCCCC(=O)O)c(C)c2)cc1 [2(e)]
[V] O=C(O)CCCOc1ccccc1NC(=O)c1ccc(CNc2cccc3c2CCCC3)cc1
Rank by pIC50 (largest to smallest). Show the ranking through the labels, in the order asked for.
III, I, IV, II, V
(III: 8.52, I: 7.60, IV: 7.36, II: 6.92, V: 6.64)

###

measurement_target: 5α-reductase
measurement_notes: 5α-reductase inhibitory activity in vitro
assay_conditions: rat prostate enzyme, [4-C14]testosterone + NADPH, 60 mins at 37° C.
pIC50: −log10 of the molar value.
property: pIC50

| compound | pIC50 |
| --- | --- |
| Cc1cc(NCc2ccc(C(C)C)cc2)ccc1C(=O)Nc1ccccc1OCCCC(=O)O [2(p)] | 7.10 |

[I] CCCc1ccc(CNc2ccc(C(=O)Nc3ccccc3SCCCC(=O)O)c(C)c2)cc1 [3(a)]
[II] Cc1cc(N(Cc2ccccc2C(F)(F)F)Cc2ccccc2C(F)(F)F)ccc1C(=O)Nc1ccccc1OCCCC(=O)O [2(j)]
I would appreciate it if you could say which entry, I or II , has the lower pIC50 value. Identify your pick by its label.
I
(I: 7.25, II: 7.59)

Values were extracted from patent US4935240A.
